Just for reference, PubChem BioAssay AID588765 is where these values come from.

- test-summary: fluorescent artefacts in FAP flow readout – cell-based, FAP fluorogen, flow cytometry, cherry pick 1, artefact control for beta2AR agonist internalization project, confirmation (AID 588765);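 further: low percent response here flags compound autofluorescence meaning a false positive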
- condition-label: Am2.2 cells, fluorescence counterscreen, at 10 µM, stronger effect = lower value; measured here: FL8 channel fluorescence
In all, about 1,100 compounds went through this assay and fewer than 10 were called active. The list is a sample of the results.
Here, each record is paired with measured percent response FL8 data.
All answers are understood in %, so give the number only.

>  <compound>
CC(=O)c1ccc(NC(=O)c2ccc3c(Cl)c4c(nc3c2)CCCC4)cc1

>  <percent response FL8 [%]>
89.7

$$$$
>  <compound>
CCCOc1ccc(C(=O)C(CCC(CNCC)C(=O)c2ccc(OCCC)cc2)CNCC)cc1 (stereo not drawn)

>  <percent response FL8 [%]>
76.7

$$$$
>  <compound>
O=C(C1CCN(c2nnc(-n3cccc3)s2)CC1)N1CCc2ccccc2C1

>  <percent response FL8 [%]>
104

$$$$
>  <compound>
CSc1ccc(CCNC(=O)C2CCN(c3nnc(-n4cccc4)s3)CC2)cc1

>  <percent response FL8 [%]>
94.2

$$$$
>  <compound>
O=C(Nc1ccc2c(c1)OCCO2)C(c1ccc(F)cc1)N1CCCCC1 (stereo not drawn)

>  <percent response FL8 [%]>
111

$$$$
>  <compound>
O=C(NCCCn1ccnc1)C1CCCN(S(=O)(=O)c2cc(Cl)ccc2Cl)C1 (stereo not drawn)

>  <percent response FL8 [%]>
109

$$$$
>  <compound>
CCOc1ccccc1NC(=O)COc1ccc(S(=O)(=O)N2CCCC2)cc1

>  <percent response FL8 [%]>
107

$$$$
>  <compound>
CC(=O)Nc1ccc(CN2CCC(Oc3ccc(C(=O)N4CCCC4)cc3)CC2)cc1

>  <percent response FL8 [%]>
109

$$$$
>  <compound>
O=S(=O)(Nc1ccc2[nH]ncc2c1)c1ccccc1Cl

>  <percent response FL8 [%]>
87.7

$$$$
>  <compound>
Cc1ccc(Sc2cc(N3CCOCC3)nc(-c3ccccc3)n2)cc1

>  <percent response FL8 [%]>
111

$$$$

I am curious: what percent response FL8 value has been reported for Cc1ccc(Cl)cc1NC(=O)CN1CCN(S(=O)(=O)N2CCOCC2)CC1 ? 93.1

I am curious: what percent response FL8 value has been reported for CCOc1ccccc1N1C(=O)CC(Sc2nccc(C)n2)C1=O (stereo not drawn) ? 97.2

I am curious: what percent response FL8 value has been reported for CCCN(CCc1ccccc1)C1CCc2c(O)cccc2C1 (stereo not drawn) ? 98.5

I am curious: what percent response FL8 value has been reported for COc1ccc2c(c1OC)C(=O)OC2Nc1nc(-c2ccccc2)cs1 (stereo not drawn) ? 92.1

I am curious: what percent response FL8 value has been reported for CCCCCCCCCCOC(=O)Cn1c(COc2ccc(C)cc2)[n+](C)c2ccccc21 ? 113
